Target: human M4 muscarinic acetylcholine receptor (Homo sapiens, UniProt P08173)
Sequence (P08173 1-479): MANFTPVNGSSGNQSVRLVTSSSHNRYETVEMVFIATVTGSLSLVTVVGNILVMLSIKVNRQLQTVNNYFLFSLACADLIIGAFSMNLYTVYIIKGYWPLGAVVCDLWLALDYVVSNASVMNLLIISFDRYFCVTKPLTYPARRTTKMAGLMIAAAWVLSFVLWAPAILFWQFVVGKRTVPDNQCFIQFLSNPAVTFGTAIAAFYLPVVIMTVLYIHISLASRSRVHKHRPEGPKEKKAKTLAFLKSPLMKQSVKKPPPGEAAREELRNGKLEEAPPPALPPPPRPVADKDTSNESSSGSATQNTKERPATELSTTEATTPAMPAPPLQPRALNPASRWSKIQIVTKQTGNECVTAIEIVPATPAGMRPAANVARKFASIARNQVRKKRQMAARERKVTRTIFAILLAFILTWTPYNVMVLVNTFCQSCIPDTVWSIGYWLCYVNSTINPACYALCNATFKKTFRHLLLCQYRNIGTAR
Test: human FLIPR-based M4 PAM assay (CHO-K1 cells, human M4 receptor and Gαqi5, calcium dye fluorescence, acetylcholine at 20% of maximum)
Conditions: inflection point (IP) of 4 parameter logistic dose response curve; CHO-K1 cells with human M4 receptor and Gαqi5; FLIPR Tetra
readoutLabel: pEC50
The read-out pEC50 is expressed as -log10 of concentration in moles per litre.

givensmiles=COc1ccc(OC2CCN(c3nc4cc[nH]c(=O)c4cc3C)CC2)cn1 assayresult=6.94

Prompt: Query (compound): COc1ccc(OC2CCN(c3nc4cnn(C)c(=O)c4cc3C)CC2)cn1 ; field requested: pEC50
Completion: 7.21

Prompt: Query (compound): Cc1nc2nc(N3CCC(Oc4cnc5c(c4)COC5)CC3)c(C)cc2c(=O)[nH]1 ; field requested: pEC50
Completion: 6.80

Prompt: Query (compound): COc1ccc(OC2CCN(c3nc4ccoc(=O)c4cc3C)CC2)cn1 ; field requested: pEC50
Completion: 7.07

Prompt: Query (compound): CCc1cc2c(=O)[nH]ncc2nc1N1CCC(Oc2ccc(OC)nc2)CC1 ; field requested: pEC50
Completion: 7.15

Prompt: Query (compound): COc1ccc(OC2CCN(c3nc4oc(C)cc(=O)c4cc3C)CC2)cn1 ; field requested: pEC50
Completion: 7.00

Prompt: Query (compound): Cc1cc2c(=O)[nH]c(=O)[nH]c2nc1N1CCC(OCC2CCCC2)CC1 ; field requested: pEC50
Completion: 6.95

Prompt: Query (compound): Cc1cc2c(=O)[nH]c(=O)[nH]c2nc1N1CCC(OCC(C)C)CC1 ; field requested: pEC50
Completion: 6.86
